Molecular target: RPS6KB2 (human)
Experiment: Caliper, Mobility shift assay off-chip
Settings: compound 0.2 µM
recordedEndpoint: inhibition (%)

Check out these entries, answers already filled in.
>>> readoutnumber("CNC(=O)c1cc(Oc2ccc(NC(=O)Nc3ccc(Cl)c(C(F)(F)F)c3)cc2)ccn1")
5.5
>>> readoutnumber("Cc1ccc(Nc2nccc(N(C)c3ccc4c(C)n(C)nc4c3)n2)cc1S(N)(=O)=O")
6.7

1. CCN(CC)CCNC(=O)c1c(C)[nH]c(/C=C2\C(=O)Nc3ccc(F)cc32)c1C
2. COc1cc2c(Oc3ccc4[nH]c(C)cc4c3F)ncnc2cc1OCCCN1CCCC1
For the two items 1 and 2 , which reports the higher inhibition value? Your answer should be the label of the entry you select.
1
(1: 15.7%, 2: 0.6%)

====

Molecular target: CDC42BPA (human) (UniProt Q5VT25)
Sequence (Q5VT25 whole entry, looked up): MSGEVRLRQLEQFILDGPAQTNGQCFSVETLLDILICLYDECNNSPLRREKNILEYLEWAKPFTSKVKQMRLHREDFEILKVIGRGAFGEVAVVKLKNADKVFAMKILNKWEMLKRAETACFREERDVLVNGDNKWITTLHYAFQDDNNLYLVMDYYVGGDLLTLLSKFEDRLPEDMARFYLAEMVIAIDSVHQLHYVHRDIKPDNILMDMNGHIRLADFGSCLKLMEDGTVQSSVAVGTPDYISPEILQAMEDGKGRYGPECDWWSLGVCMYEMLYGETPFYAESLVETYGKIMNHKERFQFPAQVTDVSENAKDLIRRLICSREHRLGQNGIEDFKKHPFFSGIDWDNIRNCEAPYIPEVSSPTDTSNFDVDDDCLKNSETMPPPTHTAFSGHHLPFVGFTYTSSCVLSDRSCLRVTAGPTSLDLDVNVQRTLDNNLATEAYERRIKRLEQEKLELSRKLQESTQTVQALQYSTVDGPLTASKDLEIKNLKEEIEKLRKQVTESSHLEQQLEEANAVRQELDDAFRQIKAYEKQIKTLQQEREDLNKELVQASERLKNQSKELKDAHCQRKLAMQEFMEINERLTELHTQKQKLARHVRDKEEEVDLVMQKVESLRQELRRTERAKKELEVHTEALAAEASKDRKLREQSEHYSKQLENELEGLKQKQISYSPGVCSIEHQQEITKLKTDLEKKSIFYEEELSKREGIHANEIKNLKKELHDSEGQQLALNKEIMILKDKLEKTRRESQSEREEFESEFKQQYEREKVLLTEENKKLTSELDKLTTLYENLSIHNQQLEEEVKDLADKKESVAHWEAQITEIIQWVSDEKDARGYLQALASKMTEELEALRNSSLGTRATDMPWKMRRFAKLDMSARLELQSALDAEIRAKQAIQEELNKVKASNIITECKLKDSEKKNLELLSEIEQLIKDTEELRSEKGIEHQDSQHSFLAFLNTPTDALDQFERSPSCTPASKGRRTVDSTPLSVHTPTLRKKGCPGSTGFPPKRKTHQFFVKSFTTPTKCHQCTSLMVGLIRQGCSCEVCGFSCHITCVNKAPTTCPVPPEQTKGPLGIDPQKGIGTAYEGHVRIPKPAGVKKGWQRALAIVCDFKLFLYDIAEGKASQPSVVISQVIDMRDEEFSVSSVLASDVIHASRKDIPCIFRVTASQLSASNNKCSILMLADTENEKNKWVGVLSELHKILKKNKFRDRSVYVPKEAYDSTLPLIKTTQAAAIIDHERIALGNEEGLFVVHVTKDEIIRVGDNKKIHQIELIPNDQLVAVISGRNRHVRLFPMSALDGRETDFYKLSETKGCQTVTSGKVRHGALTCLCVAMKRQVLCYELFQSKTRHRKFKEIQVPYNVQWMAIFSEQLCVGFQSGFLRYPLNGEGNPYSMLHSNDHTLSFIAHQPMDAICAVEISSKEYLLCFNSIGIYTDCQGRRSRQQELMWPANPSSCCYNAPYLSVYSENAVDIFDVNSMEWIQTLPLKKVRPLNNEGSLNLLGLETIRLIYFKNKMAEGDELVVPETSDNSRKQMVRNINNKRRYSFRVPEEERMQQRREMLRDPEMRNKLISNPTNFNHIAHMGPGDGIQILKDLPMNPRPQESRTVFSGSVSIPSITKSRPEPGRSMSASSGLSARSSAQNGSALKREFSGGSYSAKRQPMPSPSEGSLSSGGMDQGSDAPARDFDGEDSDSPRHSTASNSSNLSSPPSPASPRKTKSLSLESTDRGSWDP
Experiment: Caliper, Mobility shift assay off-chip
Details: compound 0.2 µM
recordedEndpoint: inhibition (%)

Check out these entries, answers already filled in.
>>> readoutnumber("CNC(=O)c1cc(Oc2ccc(NC(=O)Nc3ccc(Cl)c(C(F)(F)F)c3)cc2)ccn1")
8.1
>>> readoutnumber("COc1cc2c(Oc3ccc4[nH]c(C)cc4c3F)ncnc2cc1OCCCN1CCCC1")
14.9

P. Cc1ccc(Nc2nccc(N(C)c3ccc4c(C)n(C)nc4c3)n2)cc1S(N)(=O)=O
Q. CCN(CC)CCNC(=O)c1c(C)[nH]c(/C=C2\C(=O)Nc3ccc(F)cc32)c1C
In terms of reported inhibition, does P or Q have the smaller number? Your answer should be the label of the entry you select.
Q

====

Molecular target: PDPK1 (human) (UniProt O15530)
Sequence (O15530 whole entry, looked up): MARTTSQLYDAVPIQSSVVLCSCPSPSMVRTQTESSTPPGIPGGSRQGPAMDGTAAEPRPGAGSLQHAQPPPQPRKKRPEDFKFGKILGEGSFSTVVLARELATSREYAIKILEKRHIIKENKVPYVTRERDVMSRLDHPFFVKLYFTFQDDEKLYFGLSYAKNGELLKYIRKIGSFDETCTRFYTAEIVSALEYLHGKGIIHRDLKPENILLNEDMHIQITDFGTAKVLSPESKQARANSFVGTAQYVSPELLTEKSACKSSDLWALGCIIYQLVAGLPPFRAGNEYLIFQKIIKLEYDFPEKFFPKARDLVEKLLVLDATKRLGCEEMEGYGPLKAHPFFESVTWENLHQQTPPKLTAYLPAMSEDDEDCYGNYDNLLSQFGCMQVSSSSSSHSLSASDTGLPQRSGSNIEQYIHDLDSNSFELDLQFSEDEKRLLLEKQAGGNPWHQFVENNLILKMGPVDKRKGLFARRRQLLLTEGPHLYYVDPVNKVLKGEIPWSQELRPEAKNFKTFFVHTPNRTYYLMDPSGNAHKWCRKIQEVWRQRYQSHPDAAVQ
Assay: Caliper, Mobility shift assay off-chip
Details: compound 0.2 µM
recordedEndpoint: inhibition (%)

A. COc1cc2c(Oc3ccc4[nH]c(C)cc4c3F)ncnc2cc1OCCCN1CCCC1
B. Cc1ccc(Nc2nccc(N(C)c3ccc4c(C)n(C)nc4c3)n2)cc1S(N)(=O)=O
C. CCN(CC)CCNC(=O)c1c(C)[nH]c(/C=C2\C(=O)Nc3ccc(F)cc32)c1C
D. CNC(=O)c1cc(Oc2ccc(NC(=O)Nc3ccc(Cl)c(C(F)(F)F)c3)cc2)ccn1
Rank by inhibition (largest to smallest). Output the labels ranked as instructed.
D, C, B, A

====

Target: MAP3K12 (human) (UniProt Q12852)
Sequence (Q12852 whole entry, looked up): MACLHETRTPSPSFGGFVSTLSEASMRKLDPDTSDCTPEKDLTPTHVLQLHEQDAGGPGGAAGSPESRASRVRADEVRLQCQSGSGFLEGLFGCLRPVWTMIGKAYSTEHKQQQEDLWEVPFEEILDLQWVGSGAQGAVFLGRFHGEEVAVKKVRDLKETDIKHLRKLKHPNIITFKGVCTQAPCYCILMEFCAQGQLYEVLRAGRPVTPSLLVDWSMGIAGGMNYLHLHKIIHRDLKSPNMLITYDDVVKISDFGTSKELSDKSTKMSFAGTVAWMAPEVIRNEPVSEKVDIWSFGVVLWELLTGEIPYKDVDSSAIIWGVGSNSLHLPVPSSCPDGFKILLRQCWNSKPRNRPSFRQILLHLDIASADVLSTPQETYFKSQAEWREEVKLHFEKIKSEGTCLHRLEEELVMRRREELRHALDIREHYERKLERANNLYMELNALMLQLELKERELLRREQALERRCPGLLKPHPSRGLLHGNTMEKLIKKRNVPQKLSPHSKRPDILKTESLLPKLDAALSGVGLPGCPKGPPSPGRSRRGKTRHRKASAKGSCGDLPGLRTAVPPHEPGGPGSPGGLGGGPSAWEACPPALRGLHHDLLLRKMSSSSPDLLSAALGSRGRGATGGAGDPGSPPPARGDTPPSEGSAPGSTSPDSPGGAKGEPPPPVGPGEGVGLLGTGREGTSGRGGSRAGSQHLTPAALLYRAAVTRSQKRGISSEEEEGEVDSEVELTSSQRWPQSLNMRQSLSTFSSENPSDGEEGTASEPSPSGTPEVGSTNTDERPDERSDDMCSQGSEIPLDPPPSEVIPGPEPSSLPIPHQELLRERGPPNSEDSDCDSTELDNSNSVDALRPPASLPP
Assay: ELISA
Conditions: compound 0.2 µM
recordedEndpoint: inhibition (%)

>>> readoutnumber("CNC(=O)c1cc(Oc2ccc(NC(=O)Nc3ccc(Cl)c(C(F)(F)F)c3)cc2)ccn1")
2.7
>>> readoutnumber("CCN(CC)CCNC(=O)c1c(C)[nH]c(/C=C2\\C(=O)Nc3ccc(F)cc32)c1C")
59.5

I. COc1cc2c(Oc3ccc4[nH]c(C)cc4c3F)ncnc2cc1OCCCN1CCCC1
II. Cc1ccc(Nc2nccc(N(C)c3ccc4c(C)n(C)nc4c3)n2)cc1S(N)(=O)=O
In terms of reported inhibition, does I or II have the smaller number? Your answer should be the label of the entry you select.
I
(I: 10.3%, II: 25%)

====

Target: PDGFRB (human)
recordedEndpoint: Ki (nM)
Entry rule: numbers only, all in nM.

Please supply the value of reported Ki for the item COc1cc2nccc(Oc3ccc(NC(=O)Nc4cc(C)on4)c(Cl)c3)c2cc1OC
1.4

====

Molecular target: UniProt O15146
Sequence (O15146 whole entry, looked up): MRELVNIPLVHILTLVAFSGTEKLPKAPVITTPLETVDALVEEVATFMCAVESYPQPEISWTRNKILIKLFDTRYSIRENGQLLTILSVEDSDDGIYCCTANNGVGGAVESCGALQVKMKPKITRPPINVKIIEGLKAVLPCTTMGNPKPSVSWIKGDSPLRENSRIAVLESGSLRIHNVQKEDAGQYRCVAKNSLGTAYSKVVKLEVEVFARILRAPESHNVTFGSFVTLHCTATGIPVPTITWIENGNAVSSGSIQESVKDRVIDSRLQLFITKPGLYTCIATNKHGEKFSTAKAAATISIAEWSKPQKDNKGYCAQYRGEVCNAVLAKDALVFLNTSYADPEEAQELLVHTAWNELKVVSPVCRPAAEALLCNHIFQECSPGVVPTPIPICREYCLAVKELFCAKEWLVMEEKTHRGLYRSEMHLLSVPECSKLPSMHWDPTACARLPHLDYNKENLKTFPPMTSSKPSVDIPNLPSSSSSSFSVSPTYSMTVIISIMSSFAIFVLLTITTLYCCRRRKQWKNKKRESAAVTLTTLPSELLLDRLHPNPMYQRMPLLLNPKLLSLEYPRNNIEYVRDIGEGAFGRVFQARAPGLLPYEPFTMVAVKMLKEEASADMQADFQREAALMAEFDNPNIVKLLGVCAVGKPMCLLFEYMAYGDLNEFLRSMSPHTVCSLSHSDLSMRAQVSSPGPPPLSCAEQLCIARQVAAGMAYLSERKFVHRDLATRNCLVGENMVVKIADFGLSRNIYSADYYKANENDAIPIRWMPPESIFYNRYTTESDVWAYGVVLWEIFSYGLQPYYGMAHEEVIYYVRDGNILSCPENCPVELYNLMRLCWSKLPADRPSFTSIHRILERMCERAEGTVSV
Assay: Caliper, Mobility shift assay off-chip
Conditions: compound 0.02 µM
recordedEndpoint: inhibition (%)

I. CNC(=O)c1cc(Oc2ccc(NC(=O)Nc3ccc(Cl)c(C(F)(F)F)c3)cc2)ccn1
II. Cc1ccc(Nc2nccc(N(C)c3ccc4c(C)n(C)nc4c3)n2)cc1S(N)(=O)=O
III. CNC(=O)c1ccccc1Sc1ccc2c(/C=C/c3ccccn3)n[nH]c2c1
IV. COc1cc2c(Oc3ccc4[nH]c(C)cc4c3F)ncnc2cc1OCCCN1CCCC1
In this exercise, place the 4 molecules in ascending sequence of their recorded inhibition. Output the labels ranked as instructed.
IV, II, III, I
